Reported Papp B→A at 2 h, 2 µM by item:
test system: P-gp (human MDR1); test: Bidirectional transport across LLC-PK1-MDR1 monolayer stably expressing human MDR1 (P-gp) (Transwell); settings: pig, LLC-PK1, pH 7.4;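 further: 2 h incubation at 37 °C, receiver HBSS with 10 mM Hepes plus 1% BSA, LC-MS/MS of donor and receiver, recovery as receiver plus donor amount over initial donor amount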
reported_property: Papp B→A at 2 h, 2 µM (×10⁻⁶ cm/s)

COc1ccc2[nH]cc(CCNC(C)=O)c2c1    21.7
CCOc1ccc(NC(C)=O)cc1    29
C[C@H]1O[C@@H](O[C@H]2[C@@H](O)C[C@H](O[C@H]3[C@@H](O)C[C@H](O[C@H]4CC[C@@]5(C)[C@H](CC[C@@H]6[C@@H]5C[C@@H](O)[C@]5(C)[C@@H](C7=CC(=O)OC7)CC[C@]65O)C4)O[C@@H]3C)O[C@@H]2C)C[C@H](O)[C@@H]1O    7.79
COc1ccc2[nH]c([S+]([O-])Cc3ncc(C)c(OC)c3C)nc2c1 (centres unmarked)    41.5
Cc1cccc([C@H](C)c2cnc[nH]2)c1C    29.1
COc1ccc2c(c1)[C@]13CCCC[C@@H]1[C@H](C2)N(C)CC3    21.9
COc1ccc2c(c1)c(CC(=O)O)c(C)n2C(=O)c1ccc(Cl)cc1    20.3
COCCOC(=O)C1=C(C)NC(C)=C(C(=O)OC(C)C)C1c1cccc([N+](=O)[O-])c1 (centres unmarked)    44.5

Source listed as paper PMC12667295.
